Protocol Text: MRP1 drug-resistance reversers in H69AR cells – cell-based, doxorubicin co-treatment, pilot screen (AID 601)
Conditions: H69AR cells + 2 uM doxorubicin, CellTiter-Glo, 72 h; measured here: viability with 2 uM doxorubicin; at 10 µM; stronger effect = lower value
Assign viability to each entry below.
Give bare numbers, in %.

Example entries begin here.
[
  {
    "Molecule": "COc1ccc(C2CC(c3ccc(Cl)cc3Cl)Nc3nc(N)nn32)cc1 (centres undefined)",
    "Recorded Result": 90.2
  },
  {
    "Molecule": "COC(=O)c1cn(C(=O)c2ccc(Br)o2)c2ccccc12",
    "Recorded Result": 89.6
  },
  {
    "Molecule": "Cc1ccc(-c2nc3cnccn3c2Nc2ccc3c(c2)OCO3)o1",
    "Recorded Result": 91.3
  },
  {
    "Molecule": "COc1ccc(/C=N/O)cc1COc1ccc(NC(C)=O)cc1",
    "Recorded Result": 90.2
  },
  {
    "Molecule": "O=C(C(Cc1ccccc1)n1cccc1)N1CCCCCC1 (centres undefined)",
    "Recorded Result": 84.4
  },
  {
    "Molecule": "Oc1ccccc1-c1nnc(COc2ccc(Cl)cc2Cl)o1",
    "Recorded Result": 76.1
  },
  {
    "Molecule": "Cn1c(C(=O)Nc2ccc3c(c2)OCO3)cc2c(=O)n(C)c3ccccc3c21",
    "Recorded Result": 26.6
  },
  {
    "Molecule": "COc1ccccc1N(CC(=O)NCc1ccccn1)S(C)(=O)=O",
    "Recorded Result": 91.6
  }
]

Then there is this molecule:
# input Tell me the measured viability of CC(=O)c1ccc(OCC(O)CN2CCN(CCO)CC2)cc1 (centres undefined) , please.
# output 100

All values here come from PubChem BioAssay.
